The values you see were collected from patent US20230250190A1.

assayed_target: T1, T4 (Tn-MUC1) (PAPGSTAPPAHGVT(α-GalNAc)SAPDTRPAPG-OH)
T1 peptide: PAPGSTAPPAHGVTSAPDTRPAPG
method: glycopeptide array
outcome_measure: EC50 (µg/mL)
Give just the numeric value; µg/mL need not be written.

[ask] Bench note: what EC50 did 166 (antibody, V domains shown) VH: QVQLVESGAEVKKPGASVKVSCKASGYTFNRYYIHWVRQAPGQGLEWMGVINPSDGSTNYAQKFRGRITMTRDTSTNIVYMELSSLRSEDTAVYFCARDAMGGDSYFDNWGQGTLVTVSS show?
[reply] 0.108

[ask] Bench note: what EC50 did 202 (antibody, V domains shown) VH: QVQLVQSGAEVKNPGASVKFSCKASGYTFINYYLQWLRQAPGQGLEWMGTINPFDGSTSYAQNFQGRVTMTRDTSSTTVYMELNSLKSEDTAVYYCARDSMIGYVLFDSWGQGTLVTVSS show?
[reply] 0.104

[ask] Bench note: what EC50 did 198 (antibody, V domains shown) VH: QVQLVQSGAEVKKPGASVKVSCKASGYTFINNYIQWVRQAPGQGLEWMGVINPYDGSIHYAQKFQGRVTLTRDTSTTTVYMELSSLRSEDTAVYYCARDYMIGYVVFEYWGQGTLVTVSS show?
[reply] 0.111

[ask] Bench note: what EC50 did 126 (antibody, V domains shown) VH: QVQLVQSGAEVKKPGASVKVSCKASGYTFNRYYLHWVRQAPGQGLEWMGVINPYDGSTNYAQKFRGRVTMTRDTSTNTVYMELSSLRSEDTAVYFCARDAMEGDSYFDNWGQGTTVTVSS show?
[reply] 0.143

[ask] Bench note: what EC50 did 114 (antibody, V domains shown) VH: QVQLVQSGAEMKKPGASVTVSCKASGYTFTNYYIQWVRQAPGQGLEWMGVINPYDGSTNYAQRFQGRVTLTRDTTTTTVNMELSGLRSEDTAVYYCARDYMIGYVVFDFWGQGTLVTVSS show?
[reply] 0.087

[ask] Bench note: what EC50 did 162 (antibody, V domains shown) VH: QVQLVQSGAEVKKPGASVMLSCKASGYIFTSYYIQWVRQAPGQGLEWMGVVNPYDGSTNYAQKFQGRVTITRDTSTSTVFMELSSLRSEDTAVYYCARDNMLGHVIFDFWGQGTLVTVSS show?
[reply] 0.037

[ask] Bench note: what EC50 did 90 (antibody, V domains shown) VH: QVQLVQSGAEVKKPGASVKVSCKASGYTFINHYIHWVRQAPGQGLEWMGVINPFDGSTNYAQKFQGRVTVTRDTSTSTVFLDLSSLRSEDTAVYYCARDNMIGYVLFDYWGQGTLVTVSS show?
[reply] 0.118

[ask] Bench note: what EC50 did 94 (antibody, V domains shown) VH: QVQLVQSGAEVKKPGSSVKVSCKASGYTFNSYYIHWVRQAPGQGLTWMGVINPFDGSTDYAQKFQGRVTMTRDTSTSTVYMDLSSLRSEDTAVYYCARDYMRGYVVFDYWGRGTLVTVSS show?
[reply] 0.034
